system: HeLa cells; assay: AAV2 FLAG-Luc transduction of HeLa cells (luciferase screen); format: cell-based, human; conditions: at the doses tested; MOI 100, 2 hours infection, harvest 48 hours
Would you kindly list increase in transduction efficiency for each of these molecules?
Respond with the bare value in fold.

If you can, please state the reported increase in transduction efficiency value of CC[C@@]1(O)C(=O)OCc2c1cc1n(c2=O)Cc2cc3ccccc3nc2-1 . 15

// query: N.N.[Cl][Pt][Cl] [cisplatin] 16

// query: O=C(OC[C@H]1O[C@@H](OC(=O)c2cc(O)c(O)c(OC(=O)c3cc(O)c(O)c(O)c3)c2)[C@H](OC(=O)c2cc(O)c(O)c(OC(=O)c3cc(O)c(O)c(O)c3)c2)[C@@H](OC(=O)c2cc(O)c(O)c(OC(=O)c3cc(O)c(O)c(O)c3)c2)[C@@H]1OC(=O)c1cc(O)c(O)c(OC(=O)c2cc(O)c(O)c(O)c2)c1)c1cc(O)c(O)c(OC(=O)c2cc(O)c(O)c(O)c2)c1 17

// query: CCC(C)(C)C(=O)O[C@H]1C[C@@H](C)C=C2C=C[C@H](C)[C@H](CC[C@@H]3C[C@@H](O)CC(=O)O3)[C@H]21 4

Data provenance is patent US20080206198A1.
